Target sequence: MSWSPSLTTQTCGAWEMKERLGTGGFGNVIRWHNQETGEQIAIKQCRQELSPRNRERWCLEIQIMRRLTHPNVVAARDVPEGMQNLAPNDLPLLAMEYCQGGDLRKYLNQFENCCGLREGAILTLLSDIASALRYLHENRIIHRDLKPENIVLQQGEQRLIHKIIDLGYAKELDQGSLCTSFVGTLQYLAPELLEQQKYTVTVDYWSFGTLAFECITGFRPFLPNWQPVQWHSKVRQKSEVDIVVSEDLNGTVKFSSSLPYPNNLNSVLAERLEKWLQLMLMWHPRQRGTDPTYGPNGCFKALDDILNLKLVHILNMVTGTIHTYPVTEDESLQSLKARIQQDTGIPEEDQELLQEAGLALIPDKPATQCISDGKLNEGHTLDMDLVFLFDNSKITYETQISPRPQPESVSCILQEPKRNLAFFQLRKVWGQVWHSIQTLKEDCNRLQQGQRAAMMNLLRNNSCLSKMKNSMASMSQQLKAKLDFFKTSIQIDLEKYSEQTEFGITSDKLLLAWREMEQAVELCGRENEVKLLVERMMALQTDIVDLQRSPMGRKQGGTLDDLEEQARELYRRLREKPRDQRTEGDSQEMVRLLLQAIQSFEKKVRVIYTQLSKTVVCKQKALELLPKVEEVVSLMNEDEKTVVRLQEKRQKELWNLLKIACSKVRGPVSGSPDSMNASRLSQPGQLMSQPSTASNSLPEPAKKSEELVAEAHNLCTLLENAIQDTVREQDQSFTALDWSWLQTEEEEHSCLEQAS
READOUT TYPE: pIC50
Worth noting: pIC50 values are minus log10 of concentrations stated in mol/L.

What value of pIC50 has been recorded for this entry: CN1CCN(Cc2ccc(-c3cnc4[nH]cc(-c5ccc6[nH]ccc6c5)c4c3)cc2)CC1 [URMC-099, reference compound]
6.59

---

- MEASURED ON: MLK-3 (Homo sapiens, UniProt Q16584)
- Sequence (Q16584 whole entry): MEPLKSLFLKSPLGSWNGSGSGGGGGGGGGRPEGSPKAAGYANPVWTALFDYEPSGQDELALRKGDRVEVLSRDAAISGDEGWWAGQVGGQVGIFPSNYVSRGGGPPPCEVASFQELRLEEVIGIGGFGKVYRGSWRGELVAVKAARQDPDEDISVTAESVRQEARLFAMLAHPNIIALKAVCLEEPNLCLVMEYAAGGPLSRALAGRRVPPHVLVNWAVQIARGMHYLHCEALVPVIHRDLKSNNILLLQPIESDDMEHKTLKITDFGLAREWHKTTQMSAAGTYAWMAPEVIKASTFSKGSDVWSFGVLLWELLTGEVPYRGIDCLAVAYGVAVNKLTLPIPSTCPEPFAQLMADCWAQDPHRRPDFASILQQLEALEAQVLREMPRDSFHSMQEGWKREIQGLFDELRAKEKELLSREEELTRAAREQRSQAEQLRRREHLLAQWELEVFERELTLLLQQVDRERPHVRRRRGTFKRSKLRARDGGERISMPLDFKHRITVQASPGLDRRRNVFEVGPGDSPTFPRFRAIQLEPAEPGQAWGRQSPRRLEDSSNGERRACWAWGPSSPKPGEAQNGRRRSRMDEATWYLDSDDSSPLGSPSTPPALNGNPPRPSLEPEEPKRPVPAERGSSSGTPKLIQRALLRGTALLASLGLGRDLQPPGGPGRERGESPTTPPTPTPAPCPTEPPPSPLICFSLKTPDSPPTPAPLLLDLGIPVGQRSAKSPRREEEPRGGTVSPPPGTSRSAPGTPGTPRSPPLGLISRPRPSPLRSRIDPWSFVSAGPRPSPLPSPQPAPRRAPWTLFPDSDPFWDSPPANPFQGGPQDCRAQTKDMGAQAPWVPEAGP
- EXPERIMENT DESCRIPTION: Biochemical assay for the inhibition of kinase activity for MLK-3 (33P-ATP, HOTSPOT filter binding)
- ASSAY CONTEXT: activated MLK-3 20 nM, ATP 50 μM, myelin basic protein 20 μM, 20 minutes room temperature
Each entry below lists one item and its recorded IC50 value.

OC[C@H]1CCCN1c1ccc2ncc(-c3cc4ccccc4s3)n2n1    < 5 µM
COc1cccc2cc(-c3cnc4ccc(N[C@H]5CC[C@H](O)CC5)nn34)sc12    < 0.1 µM
OCCN1CCN(c2ccc3ncc(-c4cc5ccccc5s4)n3n2)CC1    < 5 µM

What value of IC50 has been recorded for this entry: O=C(O)c1ccc(Nc2ccc3ncc(-c4cc5ccccc5s4)n3n2)cc1
0.5 to 1 µM

---

Each entry below lists one item and its recorded IC50 value.
- MEASURED ON: MLK-3 (Homo sapiens, UniProt Q16584)
- EXPERIMENT DESCRIPTION: Biochemical assay for the inhibition of kinase activity for MLK-3 (33P-ATP, HOTSPOT filter binding)
- ASSAY CONTEXT: activated MLK-3 20 nM, ATP 50 μM, myelin basic protein 20 μM, 20 minutes room temperature

Study these solved cases before continuing.
COc1ccc(Nc2ccc3ncc(-c4cccc(O)c4)n3n2)cc1OC    < 5000 nM
COc1ccc(Nc2ccc3ncc(-c4cc5cnccc5s4)n3n2)cc1OC    < 100 nM
OCC1CCCN(c2ccc3ncc(-c4cc5ccccc5s4)n3n2)C1 (stereo not shown)    500 to 1000 nM
COc1ccc(Nc2ccc3ncc(-c4cc5cncc(OC)c5s4)n3n2)cc1OC    < 5000 nM
COc1ccc(Nc2ccc3ncc(-c4cc5cccc(OC(F)(F)F)c5s4)n3n2)cc1OC    < 5000 nM
O[C@H]1CC[C@H](Nc2ccc3ncc(-c4cc5cccnc5s4)n3n2)CC1    100 to 500 nM
OCCCCCNc1ccc2ncc(-c3cc4ccccc4s3)n2n1    100 to 500 nM
COc1ccc2cc(-c3cnc4ccc(Nc5ccc(OC)c(OC)c5)nn34)[nH]c2c1    100 to 500 nM

What value of IC50 has been recorded for this entry: O[C@H]1CC[C@H](Nc2ccc3ncc(-c4ccc5ccccc5c4)n3n2)CC1
100 to 500 nM

What value of IC50 has been recorded for this entry: COc1cncc2cc(-c3cnc4ccc(N[C@H]5CC[C@H](O)CC5)nn34)sc12
< 100 nM
